Values compiled from PubChem BioAssay AID1159580.

Below, each of the compounds is paired with its reported normalized growth value.
Experiment: chemical genetic growth profiling, strain panel (AID 1159580);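 also: tested at 20 µM; growth read once vehicle control cultures reached saturation at 30 °C; 1 = growth at the plate median or of vehicle wells; lower values mean less growth of the strain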
Conditions: S. cerevisiae deletion strains, growth OD, locus YDR334W, strain swr1, hits give low values
Structures can show the parent of a compound that is named as a salt. Among all 5,500 compounds or so, about 2,000 (36%) were called active. Not shown: some 18% with an inconclusive outcome. Some of the results follow. Where a SMILES comes first, the peptide text is derived from it. The star is where a group is joined. Tfa = O=C(C(F)(F)F)*
Observed property: normalized growth

compound=CN1C(C(=O)Nc2ccccn2)=C(O)c2ccccc2S1(=O)=O result_value=0.974
compound="COc1ccc2c(c1OC)C(=O)OC2[C@H]1c2c(cc3c(c2OC)OCO3)CCN1C (stereo not given in full)" result_value=1
compound=CCC(C)(C)C(=O)O[C@H]1C[C@@H](C)C=C2C=C[C@H](C)[C@H](CC[C@@H]3C[C@@H](O)CC(=O)O3)[C@H]21 result_value=0.941
compound="CC(C)C(NC(=O)C(Cc1ccc(O)cc1)NC(=O)C(NC(=O)C(F)(F)F)C(C)C)C(=O)O (stereo not drawn) (Tfa-Val-Tyr-Val-OH; configuration not given here)" result_value=1.01
compound=COc1cc([C@@H]2c3cc4c(c(O)c3C[C@H]3COC(=O)[C@@H]32)OCO4)cc(OC)c1OC result_value=0.987
compound="C=C1CCC2C(CC2(C)C)C(=C)CC/C1=N\\O (stereo not given)" result_value=1
compound=COc1ccc([C@H]2Oc3cc(OC)cc(OC)c3C[C@H]2O)cc1 result_value=1.01
compound="C=C1CCC2C(CC2(C)C)C(=O)CCC1O (stereo not given)" result_value=0.988
compound="CCC(C)C(=O)O[C@H]1C[C@H](O)C=C2C=C[C@H](C)[C@H](CC[C@@H](O)C[C@@H](O)CC(=O)O)C21 (stereo not given in full)" result_value=0.994
compound=Cc1cc(NC(=O)C2=C(O)c3ccccc3S(=O)(=O)N2C)no1 result_value=0.963
